Reference for the values: paper PMC6825211

- Experiment Notes: Pharmacokinetic study, single i.p. dose
- Run Conditions: mouse, plasma, ip, 5 mg/kg, Tmax, 5 mg/kg IP, individual animals 1-3
Measurement Kind: Tmax (min)
Lab book: enter the figure in min, no units written.

Q: In one line, give reported Tmax of the entry CCOc1cc2ncc(C#N)c(Nc3ccc(OCc4ccccn4)c(Cl)c3)c2cc1NC(=O)/C=C/CN(C)C [neratinib] .
Result: 30

* * *

- Experiment Notes: Pharmacokinetic study, single i.p. dose
- Run Conditions: mouse, plasma, ip, 5 mg/kg, Cmax, 5 mg/kg IP, individual animals 1-3
Measurement Kind: Cmax (nM)
Just the number please, in nM, no unit attached.

Q: Tell me its Cmax given CCOc1cc2ncc(C#N)c(Nc3ccc(OCc4ccccn4)c(Cl)c3)c2cc1NC(=O)/C=C/CN(C)C as the entry.
Result: 469

* * *

Measurement Kind: pIC50
Please treat pIC50 as minus the base-10 logarithm of the molar concentration.

Q: Return reported pIC50 for target or system MEK1 (Homo sapiens, UniProt Q02750), item CCOc1cc2ncc(C#N)c(Nc3ccc(OCc4ccccn4)c(Cl)c3)c2cc1NC(=O)/C=C/CN(C)C .
Result: 5.83

* * *

- Experiment Notes: Pharmacokinetic study, single i.p. dose
- Run Conditions: mouse, plasma, ip, 5 mg/kg, AUCINF, 5 mg/kg IP, AVERAGE n=3
Measurement Kind: AUC(0-inf) (µM·h)
Provide only the numeric value, understood in µM·h.

Q: Check the records and state AUC(0-inf) for CCOc1cc2ncc(C#N)c(Nc3ccc(OCc4ccccn4)c(Cl)c3)c2cc1NC(=O)/C=C/CN(C)C
Result: 2.27

* * *

Target protein (sequence): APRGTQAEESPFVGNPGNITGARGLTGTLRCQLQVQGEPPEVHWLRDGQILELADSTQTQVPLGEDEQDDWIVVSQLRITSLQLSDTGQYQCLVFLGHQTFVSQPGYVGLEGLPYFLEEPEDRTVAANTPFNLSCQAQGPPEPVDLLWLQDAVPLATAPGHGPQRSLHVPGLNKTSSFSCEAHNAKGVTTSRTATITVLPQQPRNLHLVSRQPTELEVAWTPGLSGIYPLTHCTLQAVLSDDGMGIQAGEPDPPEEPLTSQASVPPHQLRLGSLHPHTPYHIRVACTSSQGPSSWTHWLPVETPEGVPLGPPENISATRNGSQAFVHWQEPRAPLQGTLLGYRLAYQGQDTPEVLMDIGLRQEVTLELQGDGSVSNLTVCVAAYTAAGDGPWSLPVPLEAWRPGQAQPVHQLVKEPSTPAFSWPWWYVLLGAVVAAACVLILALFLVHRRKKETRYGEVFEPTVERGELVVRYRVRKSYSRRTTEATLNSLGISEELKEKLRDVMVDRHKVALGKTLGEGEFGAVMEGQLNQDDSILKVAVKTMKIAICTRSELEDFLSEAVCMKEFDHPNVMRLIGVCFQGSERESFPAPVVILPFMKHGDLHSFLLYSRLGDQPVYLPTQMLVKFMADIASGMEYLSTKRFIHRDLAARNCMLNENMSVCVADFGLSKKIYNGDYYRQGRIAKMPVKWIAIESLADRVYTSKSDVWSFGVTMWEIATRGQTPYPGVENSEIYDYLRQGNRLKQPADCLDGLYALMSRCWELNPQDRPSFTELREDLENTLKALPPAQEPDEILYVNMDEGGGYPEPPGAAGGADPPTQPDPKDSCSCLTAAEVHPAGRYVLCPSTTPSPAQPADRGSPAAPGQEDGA
Measurement Kind: IC50 (nM)
Record the value in nM, omitting the unit from your answer.

Q: Hello, please tell me recorded IC50 for this one: CCOc1cc2ncc(C#N)c(Nc3ccc(OCc4ccccn4)c(Cl)c3)c2cc1NC(=O)/C=C/CN(C)C
Result: 185

* * *

- Experiment Notes: Pharmacokinetic study, single i.p. dose
- Run Conditions: mouse, plasma, ip, 5 mg/kg, AUC0-24, 5 mg/kg IP, individual animals 1-3
Measurement Kind: AUC(0-t) (µM·h)
// note: answer is a bare numeric in µM·h

Q: Query AUC(0-t) for CCOc1cc2ncc(C#N)c(Nc3ccc(OCc4ccccn4)c(Cl)c3)c2cc1NC(=O)/C=C/CN(C)C [neratinib]
Result: 1.62

* * *

- Target: PAK6 (Homo sapiens, UniProt Q9NQU5)
- Sequence (Q9NQU5 whole entry, species assumed): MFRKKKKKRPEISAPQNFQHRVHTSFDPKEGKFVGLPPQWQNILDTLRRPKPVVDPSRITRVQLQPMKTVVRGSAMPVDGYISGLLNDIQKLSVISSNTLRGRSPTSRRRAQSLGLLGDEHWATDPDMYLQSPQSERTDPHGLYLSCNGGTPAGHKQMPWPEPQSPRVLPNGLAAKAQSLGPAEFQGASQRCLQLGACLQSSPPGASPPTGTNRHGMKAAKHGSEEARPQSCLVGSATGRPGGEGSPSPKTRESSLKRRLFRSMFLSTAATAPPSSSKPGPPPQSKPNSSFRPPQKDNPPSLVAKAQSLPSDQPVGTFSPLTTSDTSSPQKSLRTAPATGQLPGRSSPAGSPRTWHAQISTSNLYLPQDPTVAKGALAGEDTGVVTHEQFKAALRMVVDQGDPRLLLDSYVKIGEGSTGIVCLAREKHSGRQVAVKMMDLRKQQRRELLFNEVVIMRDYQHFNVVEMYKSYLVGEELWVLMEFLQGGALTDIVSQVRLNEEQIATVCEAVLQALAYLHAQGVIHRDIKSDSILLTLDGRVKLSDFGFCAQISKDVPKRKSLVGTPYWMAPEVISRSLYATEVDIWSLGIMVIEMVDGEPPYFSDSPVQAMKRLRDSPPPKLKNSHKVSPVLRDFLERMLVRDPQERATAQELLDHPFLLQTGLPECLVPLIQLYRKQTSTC
pIC50: −log10 of the molar value.
Measurement Kind: pIC50

Q: Supply reported pIC50 belonging to this molecule: CCOc1cc2ncc(C#N)c(Nc3ccc(OCc4ccccn4)c(Cl)c3)c2cc1NC(=O)/C=C/CN(C)C [neratinib]
Result: < 4.70

* * *

- Experiment Notes: Pharmacokinetic study, single i.p. dose
- Run Conditions: mouse, plasma, ip, 5 mg/kg, AUCINF, 5 mg/kg IP, individual animals 1-3
Measurement Kind: AUC(0-inf) (µM·h)
Number only, in µM·h; omit the unit.

Q: Report AUC(0-inf), nothing else, for this compound: CCOc1cc2ncc(C#N)c(Nc3ccc(OCc4ccccn4)c(Cl)c3)c2cc1NC(=O)/C=C/CN(C)C [neratinib]
Result: 2.36

* * *

- Experiment Notes: Pharmacokinetic study, single i.p. dose
- Run Conditions: mouse, plasma, ip, 5 mg/kg, Cmax, 5 mg/kg IP, AVERAGE n=3
Measurement Kind: Cmax (nM)
Just the number in nM, nothing appended.

Q: Supply measured Cmax of CCOc1cc2ncc(C#N)c(Nc3ccc(OCc4ccccn4)c(Cl)c3)c2cc1NC(=O)/C=C/CN(C)C in your reply.
Result: 549

* * *

- Experiment Notes: Pharmacokinetic study, single i.p. dose
- Run Conditions: mouse, plasma, ip, 5 mg/kg, AUC0-24, 5 mg/kg IP, AVERAGE n=3
Measurement Kind: AUC(0-t) (µM·h)
// units = µM·h; emit number, no label

Q: # return recorded AUC(0-t) for input CCOc1cc2ncc(C#N)c(Nc3ccc(OCc4ccccn4)c(Cl)c3)c2cc1NC(=O)/C=C/CN(C)C
Result: 1.9

* * *

Measurement Kind: pIC50
For clarity, pIC50 is expressed as the negative log10 of concentration in mol/L.

Q: Provide pIC50, tested on CHEK2 (Homo sapiens), for CCOc1cc2ncc(C#N)c(Nc3ccc(OCc4ccccn4)c(Cl)c3)c2cc1NC(=O)/C=C/CN(C)C [neratinib] .
Sequence (O96017 whole entry, species assumed): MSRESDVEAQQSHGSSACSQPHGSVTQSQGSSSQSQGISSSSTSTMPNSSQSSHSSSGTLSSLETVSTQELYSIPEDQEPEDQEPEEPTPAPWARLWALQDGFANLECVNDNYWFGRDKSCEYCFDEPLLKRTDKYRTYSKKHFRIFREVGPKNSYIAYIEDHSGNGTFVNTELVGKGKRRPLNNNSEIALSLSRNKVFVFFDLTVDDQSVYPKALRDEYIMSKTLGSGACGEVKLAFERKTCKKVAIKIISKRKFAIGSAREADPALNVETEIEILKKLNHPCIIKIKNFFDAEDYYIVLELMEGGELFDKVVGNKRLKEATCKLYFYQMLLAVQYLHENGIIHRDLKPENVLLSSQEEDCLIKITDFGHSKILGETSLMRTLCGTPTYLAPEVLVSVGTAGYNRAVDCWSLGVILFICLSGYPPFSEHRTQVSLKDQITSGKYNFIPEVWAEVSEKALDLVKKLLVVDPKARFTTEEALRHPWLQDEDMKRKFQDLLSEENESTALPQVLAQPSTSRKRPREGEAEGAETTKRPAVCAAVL
Result: 6.03

* * *

- Experiment Notes: Pharmacokinetic study, single i.p. dose
- Run Conditions: mouse, plasma, ip, 5 mg/kg, t1/2, 5 mg/kg IP, AVERAGE n=3
Measurement Kind: half-life

Q: Return half-life for the following compound: CCOc1cc2ncc(C#N)c(Nc3ccc(OCc4ccccn4)c(Cl)c3)c2cc1NC(=O)/C=C/CN(C)C
Result: 2.6 h

* * *

- Experiment Notes: Pharmacokinetic study, single i.p. dose
- Run Conditions: mouse, plasma, ip, 5 mg/kg, time of maximum concentration post dosing, 5 mg/kg single i.p. dose, average
Measurement Kind: Tmax (min)
Kindly answer with a numeric value in min, unit omitted.

Q: Indicate the recorded Tmax value for this compound: CCOc1cc2ncc(C#N)c(Nc3ccc(OCc4ccccn4)c(Cl)c3)c2cc1NC(=O)/C=C/CN(C)C [neratinib]
Result: 40.2

* * *

- Target: UniProt:Q86Z02
- Sequence (Q86Z02 whole entry, species assumed): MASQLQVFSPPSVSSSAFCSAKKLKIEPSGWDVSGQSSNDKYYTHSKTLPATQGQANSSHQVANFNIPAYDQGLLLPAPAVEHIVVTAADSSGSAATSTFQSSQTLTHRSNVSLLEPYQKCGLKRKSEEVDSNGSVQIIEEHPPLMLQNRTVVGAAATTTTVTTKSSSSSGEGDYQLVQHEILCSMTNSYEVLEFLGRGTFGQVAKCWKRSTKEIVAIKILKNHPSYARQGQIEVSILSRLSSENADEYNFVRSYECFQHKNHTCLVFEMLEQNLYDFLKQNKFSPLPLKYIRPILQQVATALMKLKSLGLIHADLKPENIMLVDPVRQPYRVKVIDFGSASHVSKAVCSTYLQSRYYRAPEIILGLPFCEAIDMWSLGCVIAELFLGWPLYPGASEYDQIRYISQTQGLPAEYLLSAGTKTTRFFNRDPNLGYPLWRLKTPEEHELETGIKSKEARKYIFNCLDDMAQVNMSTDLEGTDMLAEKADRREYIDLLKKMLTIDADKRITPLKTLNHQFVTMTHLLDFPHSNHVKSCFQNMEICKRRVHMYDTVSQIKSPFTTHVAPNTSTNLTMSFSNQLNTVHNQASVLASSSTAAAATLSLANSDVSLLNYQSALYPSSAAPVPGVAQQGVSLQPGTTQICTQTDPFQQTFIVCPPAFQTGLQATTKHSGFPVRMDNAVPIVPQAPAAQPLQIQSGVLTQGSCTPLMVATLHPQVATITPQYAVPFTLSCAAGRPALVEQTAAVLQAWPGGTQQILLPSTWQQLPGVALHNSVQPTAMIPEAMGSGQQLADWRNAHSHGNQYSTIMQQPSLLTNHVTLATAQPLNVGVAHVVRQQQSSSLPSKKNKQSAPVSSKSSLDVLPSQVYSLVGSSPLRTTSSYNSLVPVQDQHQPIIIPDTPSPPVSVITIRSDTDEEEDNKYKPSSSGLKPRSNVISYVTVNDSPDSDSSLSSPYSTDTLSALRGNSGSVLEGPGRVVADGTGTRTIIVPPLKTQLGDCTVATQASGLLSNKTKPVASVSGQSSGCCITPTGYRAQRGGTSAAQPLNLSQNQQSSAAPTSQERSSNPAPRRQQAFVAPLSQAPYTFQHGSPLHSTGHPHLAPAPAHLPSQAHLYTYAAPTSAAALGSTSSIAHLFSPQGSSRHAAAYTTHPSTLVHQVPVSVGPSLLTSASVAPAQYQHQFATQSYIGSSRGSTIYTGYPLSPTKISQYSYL
Measurement Kind: IC50

Q: Find the measured IC50 of CCOc1cc2ncc(C#N)c(Nc3ccc(OCc4ccccn4)c(Cl)c3)c2cc1NC(=O)/C=C/CN(C)C [neratinib] and report it.
Result: > 20 µM
